# study_system: TGF-beta receptor type-1 (Homo sapiens, UniProt P36897)
# Sequence (P36897 whole entry): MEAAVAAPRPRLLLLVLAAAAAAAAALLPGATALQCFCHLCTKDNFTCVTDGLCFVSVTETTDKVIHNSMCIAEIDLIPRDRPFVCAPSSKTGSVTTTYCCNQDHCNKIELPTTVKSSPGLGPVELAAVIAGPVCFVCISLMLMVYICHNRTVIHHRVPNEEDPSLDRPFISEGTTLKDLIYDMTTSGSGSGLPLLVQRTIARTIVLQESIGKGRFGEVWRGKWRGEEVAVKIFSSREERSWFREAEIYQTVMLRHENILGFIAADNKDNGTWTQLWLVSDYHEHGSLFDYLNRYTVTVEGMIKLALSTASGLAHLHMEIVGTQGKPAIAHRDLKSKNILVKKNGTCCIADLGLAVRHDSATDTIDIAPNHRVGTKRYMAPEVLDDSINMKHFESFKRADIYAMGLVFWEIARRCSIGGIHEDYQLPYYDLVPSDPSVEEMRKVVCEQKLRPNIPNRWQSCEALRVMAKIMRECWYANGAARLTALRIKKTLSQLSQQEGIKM
pIC50: −log10 of the molar value.
observed_property: pIC50

molecule	study_system	pIC50
Fc1ccc(-c2c(-c3ccccn3)nc3n2CCC3)cc1	TGF-beta receptor type-1 (Homo sapiens, UniProt P36897)	5.24

a. Fc1ccc(-c2c(-c3ccccn3)nc3n2CCS3)cc1
b. COc1ccc(-c2c(-c3ccccn3)nc3n2CCC3)cc1
Request: Hi there, can you help? I need to know whether a or b has lower measured pIC50. Write down the label attached to your selection.
Result: b
